Tested on: 786-0 renal
EXPERIMENT: NCI-60 one-dose screen, 48 h (100 = growth as untreated, 0 = no growth, -100 = all killed)
RECORDED_CONDITIONS: 10 µM unless noted
This is part of a sample that, as a whole, favours compounds with a hit. Of some 83,000 tested, about 20% had one in any assay. The source made the active and inactive calls. How the source made its calls: active means growth percent below 10; inactive means the rest.
READOUT_KIND: growth

A selection of reference data follows.
COMPOUND: CCOC(=O)C(c1ccccc1)N1C(=O)c2ccccc2C1=O (centres undefined)
growth: 102% (inactive)
//
COMPOUND: C=C(C)[C@@H]1CC[C@]2(C(N)=O)CC[C@]3(C)[C@H](CC[C@@H]4[C@@]5(C)CC[C@H](O)C(C)(C)[C@@H]5CC[C@]43C)[C@@H]12
growth: -72.2% [100 µM] (active)

Provide each entry's growth from the list below.
1. Cc1ccccc1-n1nnc(C(=O)Nc2nc3ccc(F)cc3s2)c1C
2. O=C(COc1cccc(/C=C2\Oc3ccccc3C2=O)c1)c1ccc([N+](=O)[O-])cc1
3. CN(C)c1cc(NN=C(c2ccc(O)cc2)c2ccc(O)cc2)c([N+](=O)[O-])cc1[N+](=O)[O-]
4. Cc1nn(-c2ccccc2)c(N2CCOCC2)c1-c1nc2ccc([N+](=O)[O-])cc2[nH]1
5. C#CCC(C(=O)OCC)C(=O)OCC
6. C[C@H]1[C@H](C)CC[C@]2(C(=O)O)CC[C@]3(C)C(=CC[C@@H]4[C@@]5(C)C/C(=C/c6ccco6)C(=O)C(C)(C)[C@@H]5CC[C@]43C)[C@H]12
7. Cc1ccc(-c2cc(-c3ccc(C)cc3)nc(NCCNc3ccnc4cc(Cl)ccc34)n2)cc1

(A)
1: 76.2% (inactive); 2: 102% (inactive); 3: 16.7% (inactive); 4: 107% (inactive); 5: 107% (inactive); 6: -40.3% [100 µM] (active); 7: -91.4% (active)
